Origin of measurements: ChEMBL document CHEMBL1909502

Tested on: Mus musculus
PROTOCOL_TEXT: Neurotoxicity in Swiss albino CF1 mouse assessed as decrease in locomotor activity at 30 mg/kg, ip after 0.5 hrs postdose
Type: toxicity, organism-based
Parameters: dose 30 mg/kg, route intraperitoneal; scale not given: the % may be the effect or the level left
MEASUREMENT_PARAMETERS: in vivo
So basically: is Activity under 50%? Then true. Not under? Then false.

[
  {
    "COMPOUND": "O=C(CN1C(=O)c2ccccc2C1=O)NN1C(=O)CSC1c1ccc(Cl)cc1Cl (stereo not given)",
    "ANSWER_LABEL": "false"
  },
  {
    "COMPOUND": "O=C(CN1C(=O)c2ccccc2C1=O)NN1C(=O)CSC1c1cccs1 (stereo not given)",
    "ANSWER_LABEL": "false"
  },
  {
    "COMPOUND": "O=C(CN1C(=O)c2ccccc2C1=O)NN1C(=O)CSC1c1ccccc1O (stereo not given)",
    "ANSWER_LABEL": "true"
  }
]

* * *

Test system: Mus musculus
PROTOCOL_TEXT: Anticonvulsant activity in ip dosed Swiss albino CF1 mouse assessed as protection against maximal electroshock-induced seizures after 4 hrs
Format: functional
MEASUREMENT_PARAMETERS: read-out: MED
OBSERVED_PROPERTY: minimal effective dose (mg/kg)

[
  {
    "COMPOUND": "O=C(CN1C(=O)c2ccccc2C1=O)NN1C(=O)CSC1c1c(F)cccc1Cl (stereo unspecified)",
    "OBS_VALUE": 100
  },
  {
    "COMPOUND": "O=C1NC(=O)C(c2ccccc2)(c2ccccc2)N1 [PHENYTOIN]",
    "OBS_VALUE": 30
  },
  {
    "COMPOUND": "O=C(CN1C(=O)c2ccccc2C1=O)NN1C(=O)CSC1c1cccs1 (stereo unspecified)",
    "OBS_VALUE": 100
  },
  {
    "COMPOUND": "O=C(CN1C(=O)c2ccccc2C1=O)NN1C(=O)CSC1/C=C/c1ccccc1 (stereo unspecified)",
    "OBS_VALUE": 300
  },
  {
    "COMPOUND": "COc1ccc(C2SCC(=O)N2NC(=O)CN2C(=O)c3ccccc3C2=O)cc1 (stereo unspecified)",
    "OBS_VALUE": 100
  },
  {
    "COMPOUND": "Cc1ccc(C2SCC(=O)N2NC(=O)CN2C(=O)c3ccccc3C2=O)cc1 (stereo unspecified)",
    "OBS_VALUE": 30
  }
]

* * *

Tested on: Mus musculus
PROTOCOL_TEXT: Neurotoxicity in Swiss albino CF1 mouse assessed as minimal motor deficit at 30 to 300 mg/kg, ip after 0.5 hrs by rotarod test
Type: toxicity, organism-based
Design: dose 30-300 mg/kg, route intraperitoneal
MEASUREMENT_PARAMETERS: in vivo
OBSERVED_PROPERTY: Activity

[
  {
    "COMPOUND": "CN(C)c1ccc(C2SCC(=O)N2NC(=O)CN2C(=O)c3ccccc3C2=O)cc1 (stereo unspecified)",
    "SYSTEM_UNDER_TEST": "Mus musculus",
    "OBS_VALUE": "Non-toxic"
  },
  {
    "COMPOUND": "COc1cc(C2SCC(=O)N2NC(=O)CN2C(=O)c3ccccc3C2=O)ccc1O (stereo unspecified)",
    "SYSTEM_UNDER_TEST": "Mus musculus",
    "OBS_VALUE": "Non-toxic"
  },
  {
    "COMPOUND": "O=C(CN1C(=O)c2ccccc2C1=O)NN1C(=O)CSC1c1ccco1 (stereo unspecified)",
    "SYSTEM_UNDER_TEST": "Mus musculus",
    "OBS_VALUE": "Non-toxic"
  },
  {
    "COMPOUND": "Cc1ccc(C2SCC(=O)N2NC(=O)CN2C(=O)c3ccccc3C2=O)cc1 (stereo unspecified)",
    "SYSTEM_UNDER_TEST": "Mus musculus",
    "OBS_VALUE": "Non-toxic"
  },
  {
    "COMPOUND": "O=C(CN1C(=O)c2ccccc2C1=O)NN1C(=O)CSC1/C=C/c1ccccc1 (stereo unspecified)",
    "SYSTEM_UNDER_TEST": "Mus musculus",
    "OBS_VALUE": "Non-toxic"
  },
  {
    "COMPOUND": "O=C(CN1C(=O)c2ccccc2C1=O)NN1C(=O)CSC1c1cccnc1 (stereo unspecified)",
    "SYSTEM_UNDER_TEST": "Mus musculus",
    "OBS_VALUE": "Non-toxic"
  },
  {
    "COMPOUND": "CCCC(CCC)C(=O)[O-].[Na+] [VALPROATE SODIUM]",
    "SYSTEM_UNDER_TEST": "Mus musculus",
    "OBS_VALUE": "Non-toxic"
  },
  {
    "COMPOUND": "COc1ccc(C2SCC(=O)N2NC(=O)CN2C(=O)c3ccccc3C2=O)cc1OC (stereo unspecified)",
    "SYSTEM_UNDER_TEST": "Mus musculus",
    "OBS_VALUE": "Non-toxic"
  },
  {
    "COMPOUND": "O=C(CN1C(=O)c2ccccc2C1=O)NN1C(=O)CSC1c1cccs1 (stereo unspecified)",
    "SYSTEM_UNDER_TEST": "Mus musculus",
    "OBS_VALUE": "Non-toxic"
  },
  {
    "COMPOUND": "O=C(CN1C(=O)c2ccccc2C1=O)NN1C(=O)CSC1c1c(F)cccc1Cl (stereo unspecified)",
    "SYSTEM_UNDER_TEST": "Mus musculus",
    "OBS_VALUE": "Non-toxic"
  },
  {
    "COMPOUND": "O=C(CN1C(=O)c2ccccc2C1=O)NN1C(=O)CSC1c1c[nH]c2ccccc12 (stereo unspecified)",
    "SYSTEM_UNDER_TEST": "Mus musculus",
    "OBS_VALUE": "Non-toxic"
  }
]

* * *

Activity reference
System: Mus musculus
PROTOCOL_TEXT: Neurotoxicity in Swiss albino CF1 mouse assessed as decrease in locomotor activity at 30 mg/kg, ip after 4 hrs postdose
Type: toxicity, organism-based
Parameters: dose 30 mg/kg, route intraperitoneal; scale not given: the % may be the effect or the level left
MEASUREMENT_PARAMETERS: in vivo

[
  {
    "MOLECULE": "O=C(CN1C(=O)c2ccccc2C1=O)NN1C(=O)CSC1c1cccnc1 (stereo not given)",
    "UNIT_SYMBOL": "%",
    "Activity": 24.01
  },
  {
    "MOLECULE": "O=C1NC(=O)C(c2ccccc2)(c2ccccc2)N1 [PHENYTOIN]",
    "UNIT_SYMBOL": "%",
    "Activity": 18.57
  },
  {
    "MOLECULE": "O=C(CN1C(=O)c2ccccc2C1=O)NN1C(=O)CSC1c1ccco1 (stereo not given)",
    "UNIT_SYMBOL": "%",
    "Activity": 11.64
  },
  {
    "MOLECULE": "O=C(CN1C(=O)c2ccccc2C1=O)NN1C(=O)CSC1c1ccc(Cl)cc1 (stereo not given)",
    "UNIT_SYMBOL": "%",
    "Activity": 16.13
  },
  {
    "MOLECULE": "CN(C)c1ccc(C2SCC(=O)N2NC(=O)CN2C(=O)c3ccccc3C2=O)cc1 (stereo not given)",
    "UNIT_SYMBOL": "%",
    "Activity": 44.08
  }
]

* * *

PROTOCOL_TEXT: Octanol-phosphate buffer partition coefficient, log P of the compound at 5 mg after 24 hrs by UV spectroscopic analysis
Type: physicochemical

[
  {
    "COMPOUND": "COc1ccc(C2SCC(=O)N2NC(=O)CN2C(=O)c3ccccc3C2=O)cc1 (stereo not given)",
    "logP at 24 h": 1.97
  },
  {
    "COMPOUND": "O=C(CN1C(=O)c2ccccc2C1=O)NN1C(=O)CSC1c1cccs1 (stereo not given)",
    "logP at 24 h": 2.15
  },
  {
    "COMPOUND": "O=C(CN1C(=O)c2ccccc2C1=O)NN1C(=O)CSC1c1ccco1 (stereo not given)",
    "logP at 24 h": 1.13
  },
  {
    "COMPOUND": "O=C(CN1C(=O)c2ccccc2C1=O)NN1C(=O)CSC1c1ccccc1 (stereo not given)",
    "logP at 24 h": 2.23
  },
  {
    "COMPOUND": "O=C(CN1C(=O)c2ccccc2C1=O)NN1C(=O)CSC1/C=C/c1ccccc1 (stereo not given)",
    "logP at 24 h": 3.65
  },
  {
    "COMPOUND": "O=C(CN1C(=O)c2ccccc2C1=O)NN1C(=O)CSC1c1ccccc1O (stereo not given)",
    "logP at 24 h": 1.46
  },
  {
    "COMPOUND": "CN(C)c1ccc(C2SCC(=O)N2NC(=O)CN2C(=O)c3ccccc3C2=O)cc1 (stereo not given)",
    "logP at 24 h": 2.84
  },
  {
    "COMPOUND": "COc1cc(C2SCC(=O)N2NC(=O)CN2C(=O)c3ccccc3C2=O)ccc1O (stereo not given)",
    "logP at 24 h": 1.31
  },
  {
    "COMPOUND": "O=C(CN1C(=O)c2ccccc2C1=O)NN1C(=O)CSC1c1ccc(O)cc1 (stereo not given)",
    "logP at 24 h": 2.4
  },
  {
    "COMPOUND": "O=C(CN1C(=O)c2ccccc2C1=O)NN1C(=O)CSC1c1c(F)cccc1Cl (stereo not given)",
    "logP at 24 h": 3.79
  }
]
